system-under-test: Pin1 (Homo sapiens)
Construct: purchased Anaspec
Sequence (Q13526 whole entry): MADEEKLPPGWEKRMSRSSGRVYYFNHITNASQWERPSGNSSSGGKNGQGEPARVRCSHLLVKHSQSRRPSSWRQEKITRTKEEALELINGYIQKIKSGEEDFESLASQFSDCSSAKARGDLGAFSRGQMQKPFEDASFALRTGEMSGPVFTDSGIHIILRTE
protocol: Evaluation of Pin1 enzyme inhibitory activity (Sensolyte Green Pin1 assay kit)
Assay type: biochemical
test-settings: concentration at which the Pin1 enzyme activity is inhibited; 2 hours at room temperature, fluorescence 490 nm/520 nm; read-out: Pin 1 inhibition
pIC50: −log10 of the molar value.
measure: pIC50

Consider the worked cases shown below.
compound: CN1CCN(CCCOc2ccc(S(=O)(=O)NCCc3c[nH]c4ccccc34)cc2)CC1
system-under-test: Pin1 (Homo sapiens)
pIC50: 4.00 to 5.00
//
compound: O=S(=O)(NCCCc1c[nH]c2ccc(Cl)cc12)c1ccc(CCCCC2CCNCC2)cc1
system-under-test: Pin1 (Homo sapiens)
pIC50: > 6.00

What measured pIC50 goes with "CN1CCN(CCCc2ccc(S(=O)(=O)NCCCc3c[nH]c4ccc(Cl)cc34)cc2)CC1" ?
> 6.00

If you can, please state the reported pIC50 value of "CN1CCN(CCCOc2ccc(S(=O)(=O)NCCCc3c[nH]c4ccccc34)cc2F)CC1" .
5.00 to 6.00

Recorded pIC50 for "Cc1ccc2[nH]cc(C3CCN(S(=O)(=O)c4ccc(OCCCN5CCN(C)CC5)cc4)CC3)c2c1" , please?
4.00 to 5.00

Suppose we examine the compound "CCCCOc1ccc(S(=O)(=O)NCCCn2ccc3ccccc32)cc1" ; what pIC50 value has been reported?
< 4.00

Endpoint output: pIC50 of O=S(=O)(NC1CCCC(c2c[nH]c3ccc(Cl)cc23)C1)c1ccc(OCCCN2CCNCC2)cc1 (centres unmarked) . Value?
5.00 to 6.00

Data request, read-out pIC50, for "O=S(=O)(NCCCc1c[nH]c2ccc(Cl)cc12)c1cnc(NCCCN2CCNCC2)s1"
> 6.00

###

Reported values of IC50 for individual entries
Tested on: A2780-SP cells (ovarian cancer stem cells)
protocol: Sphere cell viability of A2780-SP cells (Cell-titer Glo)
Assay type: cell-based
test-settings: 192 h; sphere cell viability, culture for 8 days; read-out: A2780-SP

compound: O=S(=O)(NCCCc1c[nH]c2ccc(F)cc12)c1ccc(OCCCN2CCNCC2)cc1
IC50: < 1000 nM

compound: O=S(=O)(NCCCc1c[nH]c2ccc(Cl)cc12)c1cccc(OCCCN2CCCCC2)c1
IC50: 1000 to 10000 nM

compound: CN1CCN(CCCOc2ccc(S(=O)(=O)NCCc3c[nH]c4ccc(Cl)cc34)cc2)CC1
IC50: < 1000 nM

compound: O=S(=O)(NCCCc1c[nH]c2ccc(Cl)cc12)c1cnc(NCCCN2CCNCC2)s1
IC50: 1000 to 10000 nM

compound: Cc1nccn1CCCOc1ccc(S(=O)(=O)NCCCc2c[nH]c3ccc(Cl)cc23)cc1
IC50: < 1000 nM

Consider the compound shown here: "O=S(=O)(NCCCc1c[nH]c2ccc(Br)cc12)c1ccc(OCCCN2CCNCC2)cc1" What is its recorded IC50?
< 1000 nM

Please give the measured IC50 for this compound: "O=S(=O)(NCCCc1c[nH]c2ccc(Cl)cc12)c1ccc(CCCOc2ccncc2)cc1"
> 10000 nM

Record request: IC50 value, item "O=S(=O)(NCCc1c[nH]c2ccc(Cl)cc12)c1ccc(OCCCN2CCNCC2)cc1"
< 1000 nM

What IC50 value was documented for this compound, CC(CCc1c[nH]c2ccc(Cl)cc12)NS(=O)(=O)c1ccc(OCCCN2CCNCC2)cc1 (stereo not shown) ?
< 1000 nM

What value of measured IC50 is listed for "O=S(=O)(NCCCc1c[nH]c2ccc(Cl)cc12)c1ccc(Nc2cc(N3CCNCC3)ccn2)cc1" ?
< 1000 nM

For the compound shown here, "O=S(=O)(NCCCc1c[nH]c2ccc(Cl)cc12)c1ccc(OC[C@H](O)CN2CCNCC2)cc1" , give the reported IC50.
< 1000 nM

Given the entry "O=S(=O)(NCCCc1c[nH]c2ccc(Cl)cc12)c1ccc(Oc2cccc(N3CCNCC3)c2)cc1" , report its measured IC50.
< 1000 nM

Suppose we examine the compound "CN1CCC(CCCOc2ccc(S(=O)(=O)NCCCc3c[nH]c4ccc(Cl)cc34)cc2)CC1" ; what IC50 value has been reported?
< 1000 nM

Need IC50, item "CN1CCN(c2cccc(Nc3ccc(S(=O)(=O)NCCCc4c[nH]c5ccc(Cl)cc45)cc3)c2)CC1"
1000 to 10000 nM

What does the record list as IC50 for "O=S(=O)(NCCCc1c[nH]c2c(Cl)cc(Cl)cc12)c1ccc(OCCCN2CCNCC2)cc1" ?
< 1000 nM

Entry "CN1CCN(C[C@H](O)COc2ccc(S(=O)(=O)NCCCc3c[nH]c4ccc(Cl)cc34)cc2)CC1" has what IC50?
< 1000 nM
